The reader will find reported Kd values listed item by item below.
# assay_target: T1, PrgE WT (Enterococcus faecalis (plasmid pCF10), UniProt D1LHE9 1-144)
# T1 sequence: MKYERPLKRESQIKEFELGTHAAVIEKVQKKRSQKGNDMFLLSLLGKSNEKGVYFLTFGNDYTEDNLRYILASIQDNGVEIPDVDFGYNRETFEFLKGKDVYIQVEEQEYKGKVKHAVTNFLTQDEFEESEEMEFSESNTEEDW
# assay: fluorescence anisotropy; 100 mM NaCl; 20 mM Hepes pH 7.5, 50 or 100 mM NaCl, 10 nM FITC-DNA, 0-20 uM protein, 30 min at RT
# measurement_conditions: protein: recombinant; tags: C-terminal 10xHis removed with 3C (PreScission) protease; chain copies: 3; label: 5' FITC; single strand
# output: numeric value plus its unit

- binder: "60-mer ssDNA (ssDNA) DNA: CAGTGACAGTCTCCACGGTGAAGCAGTCGTACCTCTTGACGCATGAATAGATATATGTTA"
  Kd: "370 nM"

Can you look up the measured Kd of CAGTGACAGTCTCCACGGTGAAGCAGTCGT (ssDNA) [30-mer ssDNA] for me? 1840 nM

Hello, the source for this data is paper PMC11137577, in case you need it.
